Values compiled from the supplement of paper PMC13380429.

test system: U2OS; assay: cell viability relative to DMSO; higher = less toxic; details: 72 h; 10 nM
MEASURED_ENDPOINT: cell viability

> print(dat)
                            compound.string  assay.value
1         COc1ccc(N(C)c2nc(C)nc3ccccc23)cc1        72.6%
2  CC(=O)Nc1ccc(S(=O)(=O)c2ccc(NC(C)=O)cc2)cc1         108%
3      N#Cc1ccc(N(Cc2ccc(Br)cc2)n2cnnc2)cc1        96.4%
4  COc1cc2c(cc1OC)CN(CCc1ccc(NC(=O)c3cc(OC)c(OC)cc3NC(=O)c3cnc4ccccc4c3)cc1)CC2         100%
5  COc1ccc(C(=O)c2c(C)n(CCN3CCOCC3)c3cc(I)ccc23)cc1         101%
